Data provenance is patent US11759455B2.

# target: human GluN1/GluN2B NMDA receptors (Homo sapiens, UniProt Q13224)
# Construct: expressed in transfected cells
# Sequence (Q13224 27-1484, other chains not shown): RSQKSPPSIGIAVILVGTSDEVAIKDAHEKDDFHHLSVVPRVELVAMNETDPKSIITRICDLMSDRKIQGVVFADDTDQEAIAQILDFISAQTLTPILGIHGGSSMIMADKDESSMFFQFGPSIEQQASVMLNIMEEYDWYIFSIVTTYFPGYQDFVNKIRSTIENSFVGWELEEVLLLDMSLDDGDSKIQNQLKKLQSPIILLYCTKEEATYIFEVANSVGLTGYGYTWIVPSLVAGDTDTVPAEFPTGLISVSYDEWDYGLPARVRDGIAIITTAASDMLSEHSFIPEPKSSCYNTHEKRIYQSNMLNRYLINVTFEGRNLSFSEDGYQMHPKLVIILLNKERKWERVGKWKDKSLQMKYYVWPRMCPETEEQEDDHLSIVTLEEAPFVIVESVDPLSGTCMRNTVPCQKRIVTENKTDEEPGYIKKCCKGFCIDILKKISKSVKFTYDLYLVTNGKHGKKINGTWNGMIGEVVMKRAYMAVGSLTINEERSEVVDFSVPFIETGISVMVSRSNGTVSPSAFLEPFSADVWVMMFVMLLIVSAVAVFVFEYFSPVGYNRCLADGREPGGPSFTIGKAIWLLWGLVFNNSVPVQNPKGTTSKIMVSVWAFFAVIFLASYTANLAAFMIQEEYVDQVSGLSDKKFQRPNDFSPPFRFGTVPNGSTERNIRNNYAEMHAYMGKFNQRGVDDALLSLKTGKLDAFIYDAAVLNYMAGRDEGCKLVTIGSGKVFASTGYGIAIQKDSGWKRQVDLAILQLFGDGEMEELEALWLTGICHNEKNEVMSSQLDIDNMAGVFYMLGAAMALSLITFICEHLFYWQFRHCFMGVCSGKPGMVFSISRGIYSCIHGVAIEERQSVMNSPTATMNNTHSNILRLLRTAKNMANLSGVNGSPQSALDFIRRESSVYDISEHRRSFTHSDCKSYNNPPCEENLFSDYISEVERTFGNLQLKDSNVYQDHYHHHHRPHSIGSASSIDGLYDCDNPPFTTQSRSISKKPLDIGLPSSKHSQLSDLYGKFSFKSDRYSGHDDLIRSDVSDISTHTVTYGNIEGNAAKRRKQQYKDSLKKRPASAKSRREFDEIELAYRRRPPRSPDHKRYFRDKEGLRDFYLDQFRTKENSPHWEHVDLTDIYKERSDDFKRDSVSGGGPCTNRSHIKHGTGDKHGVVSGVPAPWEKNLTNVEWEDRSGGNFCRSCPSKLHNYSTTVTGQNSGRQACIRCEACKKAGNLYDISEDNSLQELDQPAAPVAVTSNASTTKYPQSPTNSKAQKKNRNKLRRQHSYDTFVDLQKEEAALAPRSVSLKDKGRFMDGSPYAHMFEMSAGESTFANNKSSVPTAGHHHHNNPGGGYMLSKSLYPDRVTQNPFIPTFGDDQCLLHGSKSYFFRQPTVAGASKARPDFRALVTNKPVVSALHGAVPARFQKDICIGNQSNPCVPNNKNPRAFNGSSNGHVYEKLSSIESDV
# measurement.protocol: Cell-based calcium flux (FLIPR) assay on cloned human NR1/NR2B ion channels expressed in mammalian cells (standard and HTS buffer variants);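 further: stable Tet-On inducible cell line, Ca2+ influx triggered by glutamate at about EC40 plus 10 µM glycine, fluorescent dye read-out over 5 min, normalized to control wells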
# test.parameters: standard assay buffer (0.5 mM MgCl2 in dye loading buffer; 137 mM NaCl, 4 mM KCl in assay buffer), human GluN1/GluN2B, read-out: NR2B IC50 (μM) standard assay
experimental.readout: log10 of IC50 (log10 of the value in µM)
# log10 transformed; quantity=IC50; unit=µM

Before answering, review these 4 worked examples.
compound	log10 of IC50
Cn1c(=O)n(Cc2cccnc2)c2cc(-c3cc(F)c(F)c(F)c3)cnc21 [Example 353]	-0.84
Cn1c(=O)n(CC(=O)N2CC(F)C2)c2cc(-c3cc(F)c(F)c(F)c3)cnc21 [Example 402]	-1.80
COc1cccc(-c2cnc3[nH]c(=O)n(CC(=O)c4cccs4)c3c2)c1 [Example 602]	-0.69
Cc1cc(Cn2c(=O)[nH]c3ncc(-c4cc(F)cc(F)c4)cc32)no1 [Example 523]	-0.88

stdin: // log10 of IC50 lookup, key: Cn1c(=O)n(Cc2cncc(F)c2)c2cc(-c3ccc(Cl)c(OC(F)F)c3)cnc21 [Example 544]
stdout: -1.05

stdin: Another: CN(C)C(=O)Cn1c(=O)n(C)c2ncc(-c3cc(F)cc(F)c3)cc21 [Example 428]
stdout: -0.90

stdin: Another: CN(C)C(=O)Cn1c(=O)n(C)c2ncc(-c3cc(F)c(F)c(C(F)(F)F)c3)cc21 [Example 431]
stdout: -1.02

stdin: Another: Cn1c(=O)n(Cc2cccnc2)c2cc(-c3cccc(C(F)(F)F)c3F)cnc21 [Example 358]
stdout: -1.31
